# Protocol: Selectivity index, ratio of IC50 for cytotoxicity against human HDF cells to IC50 for anticancer activity against human SK-OV-3 cells
# Type: cell-based
# Test Parameters: HDF cells versus SK-OV-3 cells, read-out: Ratio IC50
Observation Type: selectivity ratio
Give a plain numeric answer without units written out.

Would you please look over these solved cases?
Compound Smiles	selectivity ratio
CO[C@H]1/C=C\C=C(/C)C(=O)NC2=CC(=O)C(NCc3cn(CCN4C(=O)c5ccccc5C4=O)nn3)=C(C[C@@H](C)C[C@H](OC)[C@H](O)[C@@H](C)/C=C(\C)[C@@H]1OC(N)=O)C2=O	1.53
CO[C@H]1/C=C\C=C(/C)C(=O)NC2=CC(=O)C(NCc3cn([C@@H]4O[C@H](CO)[C@@H](O)[C@H](O)[C@H]4NC(C)=O)nn3)=C(C[C@@H](C)C[C@H](OC)[C@H](O)[C@@H](C)/C=C(\C)[C@@H]1OC(N)=O)C2=O	1.15
CO[C@H]1/C=C\C=C(/C)C(=O)NC2=CC(=O)C(NCc3cn(CC4OCCO4)nn3)=C(C[C@@H](C)C[C@H](OC)[C@H](O)[C@@H](C)/C=C(\C)[C@@H]1OC(N)=O)C2=O	1.77

Problem: Query: selectivity ratio; subject: "COC(=O)C[C@H]1O[C@@H](n2cc(CNC3=C4C[C@@H](C)C[C@H](OC)[C@H](O)[C@@H](C)/C=C(\C)[C@H](OC(N)=O)[C@@H](OC)/C=C\C=C(/C)C(=O)NC(=CC3=O)C4=O)nn2)[C@H](O)[C@@H](O)[C@@H]1O"
Result: 1.49

Problem: Query: selectivity ratio; subject: "CO[C@H]1/C=C\C=C(/C)C(=O)NC2=CC(=O)C(NCc3cn(CC=C(C)C)nn3)=C(C[C@@H](C)C[C@H](OC)[C@H](O)[C@@H](C)/C=C(\C)[C@@H]1OC(N)=O)C2=O"
Result: 1.47

Problem: Query: selectivity ratio; subject: "CO[C@H]1/C=C\C=C(/C)C(=O)NC2=CC(=O)C(NCc3cn(Cc4ccc([N+](=O)[O-])cc4)nn3)=C(C[C@@H](C)C[C@H](OC)[C@H](O)[C@@H](C)/C=C(\C)[C@@H]1OC(N)=O)C2=O"
Result: 1.05

Problem: Query: selectivity ratio; subject: "CO[C@H]1/C=C\C=C(/C)C(=O)NC2=CC(=O)C(NCc3cn(Cc4ccsc4Br)nn3)=C(C[C@@H](C)C[C@H](OC)[C@H](O)[C@@H](C)/C=C(\C)[C@@H]1OC(N)=O)C2=O"
Result: 1.7

* * *

# Test system: PC-3
# Protocol: Anticancer activity against human PC-3 cells assessed as cell growth inhibition incubated for 72 hrs by SRB assay
# Assay type: functional, cell-based
# Test Parameters: Homo sapiens, PC-3, 72 h
Starred links: 1 amine or outer side, 2 acyl side, 3 side chain; linkers in the order of their positions; H or OH if unused. Positions of bridges follow the written chain, without caps; N, C: chain ends. Non-standard residues stand in square brackets, D forms with d. Residues, ends and D or L forms follow the SMILES beside them. Chains are numbered I, II in the order given. Actinocin(9to1) = Cc1c2oc3c(C)ccc(C(=O)[*:1])c3nc-2c(C(=O)[*:2])c(N)c1=O; NMeV = CN[C@H](C(=O)O)C(C)C; Sar = CNCC(=O)O
Observation Type: IC50 (nM)
Quick note: give the figure in nM, leave out the unit.

Problem: Query: IC50; subject: Cc1c2oc3c(C)ccc(C(=O)N[C@@H]4C(=O)N[C@H](C(C)C)C(=O)N5CCC[C@H]5C(=O)N(C)CC(=O)N(C)[C@@H](C(C)C)C(=O)O[C@@H]4C)c3nc-2c(C(=O)N[C@@H]2C(=O)N[C@H](C(C)C)C(=O)N3CCC[C@H]3C(=O)N(C)CC(=O)N(C)[C@@H](C(C)C)C(=O)O[C@@H]2C)c(N)c1=O [DACTINOMYCIN] (I: T[dV]P[Sar][NMeV] / II: T[dV]P[Sar][NMeV]; ester I:1-I:C, II:1-II:C; linker I:N-II:N via Actinocin(9to1))
Result: 710

* * *

# Protocol: Selectivity index, ratio of IC50 for cytotoxicity against human HDF cells to IC50 for anticancer activity against human SK-OV-3 cells
# Assay type: cell-based
# Test Parameters: HDF cells versus SK-OV-3 cells, read-out: Ratio IC50
Observation Type: selectivity ratio
Give a plain numeric answer without units written out.

Compound Smiles	selectivity ratio
CO[C@H]1/C=C\C=C(/C)C(=O)NC2=CC(=O)C(NCc3cn([C@@H]4O[C@H](CO)[C@@H](O[C@@H]5O[C@H](CO)[C@H](O)[C@H](O)[C@H]5O)[C@H](O)[C@H]4O)nn3)=C(C[C@@H](C)C[C@H](OC)[C@H](O)[C@@H](C)/C=C(\C)[C@@H]1OC(N)=O)C2=O	1.45

Next up:
Problem: Query: selectivity ratio; subject: "CCN(CC)CCn1cc(CNC2=C3C[C@@H](C)C[C@H](OC)[C@H](O)[C@@H](C)/C=C(\C)[C@H](OC(N)=O)[C@@H](OC)/C=C\C=C(/C)C(=O)NC(=CC2=O)C3=O)nn1"
Result: 1.85

* * *

# System: PC-3
# Protocol: Anticancer activity against human PC-3 cells assessed as cell growth inhibition incubated for 72 hrs by SRB assay
# Format: functional, cell-based
# Test Parameters: Homo sapiens, PC-3, 72 h
pIC50: −log10 of the molar value.
// false (0) strictly below 6 in pIC50; true (1) otherwise

Compound Smiles	Measurement Target	Category Label
C#CCNC1=C2C[C@@H](C)C[C@H](OC)[C@H](O)[C@@H](C)/C=C(\C)[C@H](OC(N)=O)[C@@H](OC)/C=C\C=C(/C)C(=O)NC(=CC1=O)C2=O	PC-3	false (0)

# next compound below
Problem: Reported pIC50 at or above 6? "CO[C@H]1/C=C\C=C(/C)C(=O)NC2=CC(=O)C(NCc3cn([C@@H]4O[C@H](CO)[C@H](O)[C@H](O)[C@H]4O)nn3)=C(C[C@@H](C)C[C@H](OC)[C@H](O)[C@@H](C)/C=C(\C)[C@@H]1OC(N)=O)C2=O"
Result: true (1)

* * *

# Protocol: Selectivity index, ratio of IC50 for cytotoxicity against human HDF cells to IC50 for anticancer activity against human SK-OV-3 cells
# Type: cell-based
# Test Parameters: HDF cells versus SK-OV-3 cells, read-out: Ratio IC50
Starred links: 1 amine or outer side, 2 acyl side, 3 side chain; linkers in the order of their positions; H or OH if unused. Positions of bridges follow the written chain, without caps; N, C: chain ends. Non-standard residues stand in square brackets, D forms with d. Residues, ends and D or L forms follow the SMILES beside them. Chains are numbered I, II in the order given. Actinocin(9to1) = Cc1c2oc3c(C)ccc(C(=O)[*:1])c3nc-2c(C(=O)[*:2])c(N)c1=O; NMeV = CN[C@H](C(=O)O)C(C)C; Sar = CNCC(=O)O
Mark true for selectivity ratio under 2, false if at or over.

Molecule	Category Label
Cc1c2oc3c(C)ccc(C(=O)N[C@@H]4C(=O)N[C@H](C(C)C)C(=O)N5CCC[C@H]5C(=O)N(C)CC(=O)N(C)[C@@H](C(C)C)C(=O)O[C@@H]4C)c3nc-2c(C(=O)N[C@@H]2C(=O)N[C@H](C(C)C)C(=O)N3CCC[C@H]3C(=O)N(C)CC(=O)N(C)[C@@H](C(C)C)C(=O)O[C@@H]2C)c(N)c1=O [DACTINOMYCIN] (I: T[dV]P[Sar][NMeV] / II: T[dV]P[Sar][NMeV]; ester I:1-I:C, II:1-II:C; linker I:N-II:N via Actinocin(9to1))	false

Problem: Decide: selectivity ratio of "C#CCNC1=C2C[C@@H](C)C[C@H](OC)[C@H](O)[C@@H](C)/C=C(\C)[C@H](OC(N)=O)[C@@H](OC)/C=C\C=C(/C)C(=O)NC(=CC1=O)C2=O" strictly below 2?
Result: true

Problem: Decide: selectivity ratio of "CO[C@H]1/C=C\C=C(/C)C(=O)NC2=CC(=O)C(NCCn3cc(CC(=O)O)nn3)=C(C[C@@H](C)C[C@H](OC)[C@H](O)[C@@H](C)/C=C(\C)[C@@H]1OC(N)=O)C2=O" strictly below 2?
Result: true

Problem: Decide: selectivity ratio of "CO[C@H]1/C=C\C=C(/C)C(=O)NC2=CC(=O)C(NCc3cn(C4CCCCCC4)nn3)=C(C[C@@H](C)C[C@H](OC)[C@H](O)[C@@H](C)/C=C(\C)[C@@H]1OC(N)=O)C2=O" strictly below 2?
Result: true

Problem: Decide: selectivity ratio of "CO[C@H]1/C=C\C=C(/C)C(=O)NC2=CC(=O)C(NCc3cn(Cc4ccc(C(F)(F)F)cc4)nn3)=C(C[C@@H](C)C[C@H](OC)[C@H](O)[C@@H](C)/C=C(\C)[C@@H]1OC(N)=O)C2=O" strictly below 2?
Result: true
